measuredTarget: Sigma non-opioid intracellular receptor 1 (Mus musculus, UniProt O55242)
Sequence (O55242 whole entry): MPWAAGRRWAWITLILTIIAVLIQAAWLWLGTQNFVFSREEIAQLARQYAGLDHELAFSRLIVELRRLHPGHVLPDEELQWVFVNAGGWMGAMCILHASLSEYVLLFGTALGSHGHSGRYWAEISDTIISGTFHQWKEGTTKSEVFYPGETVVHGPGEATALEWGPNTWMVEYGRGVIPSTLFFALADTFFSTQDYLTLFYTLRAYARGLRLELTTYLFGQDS
protocolDetails: In vitro binding affinity for the mouse sigma opioid receptor
Mark T only for Ki values smaller than 40 nM; exact matches and larger values are F.

Request: Determine if Br.COc1ccc(C(=O)CC2CCN(CC3CC3)CC2)cc1 shows Ki strictly lower than 40 nM.
Result: F

Request: Please indicate whether the reported Ki of O.O=C(CC1CCN(Cc2ccccc2)CC1)c1ccc(F)cc1.O=C(O)/C=C\C(=O)O is strictly below 40 nM.
Result: T

Request: Would you kindly verify if Ki of OC(Cc1ccc(F)cc1)C1CCN(CCCCc2ccccc2)CC1 (stereo unspecified) is strictly less than 40 nM?
Result: T

Request: Quick check: does COC(=O)c1ccc(CN2CCC(COCc3ccc(F)cc3)CC2)cc1.Cl have Ki under 40 nM?
Result: T

Request: Regarding Cl.O.O=C(CC1CCN(CC2CC2)CC1)c1ccc(C(F)(F)F)cc1 , kindly confirm whether its Ki is beneath 40 nM.
Result: F

Request: Would you kindly verify if Ki of Fc1ccc(COCC2CCN(CCCc3ccccc3)CC2)cc1 is strictly less than 40 nM?
Result: F

Request: Is 40 nM strictly greater than the molecule's reported Ki? molecule: Br.O=C(CC1CCN(CC2CC2)CC1)c1ccc(-c2ccccc2)cc1
Result: F

Request: Hello, is Ki of the following molecule strictly smaller than 40 nM? c1ccc(Oc2ccc(OCC3CCN(CC4CC4)CC3)cc2)cc1
Result: T

Request: Hello, is Ki of the following molecule strictly smaller than 40 nM? Cl.Fc1ccc(COCC2CCN(CC3CCCCC3)CC2)cc1
Result: T

Request: Does Fc1ccc(-c2ccc(OCC3CCN(CC4CC4)CC3)cc2)cc1 have Ki strictly under 40 nM?
Result: F

Request: Dear colleague, could you confirm whether Ki of Cl.Fc1ccc(COCC2CCN(Cc3ccc(OCc4ccccc4)cc3)CC2)cc1 falls below 40 nM? Thanks.
Result: T

The measurements presented in this section are drawn from ChEMBL document CHEMBL1125363.
